Could you please report measured pIC50 for the items listed next?
- tested-on: [35S]-TBPS binding, rat brain cortical membranes (GABA receptor complex)
- protocol: [35S]-TBPS binding (steroid inhibition of TBPS binding)
- condition-notes: in the presence of 5 μM GABA, read-out: 35S-TBPS Radioligand Displacement
- Experimental: [35S]-t-Butylbicyclophosphorothionate (TBPS) binding assays using rat brain cortical membranes in the presence of 5 μM GABA has been described (Gee et al, J. Pharmacol. Exp. Ther. 1987, 241, 346-353; Hawkinson et al, Mol. Pharmacol. 1994, 46, 977-985; Lewin, A. H et al., Mol. Pharmacol. 1989, 35, 189-194). Briefly, cortices are rapidly removed following decapitation of carbon dioxide-anesthetized Sprague-Dawley rats (200-250 g). […]
pIC50: −log10 of the molar value.

Check out these entries, answers already filled in.
CO[C@@H]1C[C@@H]2[C@H](CC[C@]3(C)[C@@H](C(=O)Cn4nccn4)CC[C@@H]23)[C@H]2CC[C@@](C)(O)C[C@@H]21 : < 6.30
CCOC[C@@]1(O)CC[C@H]2[C@@H](CC[C@@H]3[C@@H]2CC[C@]2(C)[C@@H](C(=O)Cn4nnnc4C)CC[C@@H]32)C1 : < 6.30
Cc1cnn(CC(=O)[C@H]2CC[C@H]3[C@@H]4CC[C@@H]5C[C@](C)(O)CC[C@@H]5[C@H]4CC[C@]23C)n1 : 7.30 to 9.00
CC[C@@]1(O)CC[C@H]2[C@@H](CC[C@@H]3[C@@H]2CC[C@]2(C)[C@@H](C(=O)Cn4nnnc4C)CC[C@@H]32)C1 : < 6.30
C[C@]12CC[C@H]3[C@@H](CC[C@@H]4C[C@@](O)(CF)CC[C@@H]43)[C@@H]1CC[C@@H]2C(=O)Cn1cnnn1 : 6.30 to 7.00

Now turn to the next compound.
Value lookup for pIC50; key = CO[C@@H]1C[C@@H]2[C@H](CC[C@]3(C)[C@@H](C(=O)Cn4ccnn4)CC[C@@H]23)[C@H]2CC[C@@](C)(O)C[C@@H]21
< 6.30
